Provenance of the data: PubChem BioAssay AID1996

Kindly supply the reported solubility kinetic values for the records listed here.
details: buffer; pH 7.4; 200.0 µM
Quick note: give the figure in µg/mL, leave out the unit.

Request: Please look up its solubility kinetic: `Cc1nc2sc3c(c2c(=O)[nH]1)CCCCC3`
Response: 2

Request: Please look up its solubility kinetic: `O=C(NCc1ccccn1)c1cccc(S(=O)(=O)N2CCc3ccccc32)c1`
Response: 21

Request: Please look up its solubility kinetic: `Cc1ccc(SCCNC(=O)c2ccc([N+](=O)[O-])c(C)c2)cc1`
Response: 9.5

Request: Please look up its solubility kinetic: `Cc1cccnc1Nc1ncnc(N)c1[N+](=O)[O-]`
Response: 36.3

Request: Please look up its solubility kinetic: Cc1ccc(S(=O)(=O)N2CC(O)CC2C(=O)OCC(=O)Nc2ccc([N+](=O)[O-])cc2C(F)(F)F)cc1C (centres undefined)
Response: 76.5

Request: Please look up its solubility kinetic: `COc1ccc(C(=O)Nc2cccc3nc(C)ccc23)cc1OC`
Response: 16.6

Request: Please look up its solubility kinetic: `CC(C)C(=O)NCc1cc(-c2ccccc2)no1`
Response: 32.5

Request: Please look up its solubility kinetic: `O=c1[nH]c(/C=C/c2cccc3ccccc23)nc2ccccc12`
Response: 2.1

Request: Please look up its solubility kinetic: `CN(C)C(=S)NC(C)(C)C`
Response: 2.7

Request: Please look up its solubility kinetic: `O=C(NC(=S)N1CCCC1)c1ccc(Cl)cc1Cl`
Response: 32.5

Request: Please look up its solubility kinetic: `COc1cccc(CNC(=S)NC2CC2)c1`
Response: 35.2

Request: Please look up its solubility kinetic: `O=C(COC(=O)c1ccc2ccccc2n1)Nc1ccccc1Br`
Response: 12.4

Request: Please look up its solubility kinetic: `CCOC(=O)c1ccc(NC(=O)N2CCc3ccccc3C2)cc1`
Response: 19.2

Request: Please look up its solubility kinetic: `O=C(NC1CCCCC1)C(=S)NCc1ccccc1`
Response: 1.4

Request: Please look up its solubility kinetic: `O=C(NC(=S)NC1CCCCC1)c1ccccc1`
Response: 8.5

Request: Please look up its solubility kinetic: `COc1ccccc1CC(=O)N1CCN(C(=O)c2ccco2)CC1`
Response: 48.3

Request: Please look up its solubility kinetic: `CCOc1ccc(S(=O)(=O)N(C)CC(=O)NCc2ccccn2)cc1`
Response: 50.2

Request: Please look up its solubility kinetic: `COC(=O)c1sc(-c2cccs2)cc1N`
Response: 7.2

Request: Please look up its solubility kinetic: `Cc1ccc(S(=O)(=O)/N=C(/Nc2c(C)cccc2C)c2ccccc2)cc1`
Response: 7.3

Request: Please look up its solubility kinetic: Cc1cc2c3c(c1)C(C)CC(C)(C)N3C(=O)C2=C(C#N)C#N (centres undefined)
Response: 0.6

Request: Please look up its solubility kinetic: `C=CCn1ccc(O)c(Cc2ccc(Cl)cc2)c1=O`
Response: 38.6

Request: Please look up its solubility kinetic: `C=CCC1(CC=C)CCCN1Cc1nc(COc2ccccc2)no1`
Response: 8.3

Request: Please look up its solubility kinetic: `COc1ccc(/C=C2\SC(N)=NC2=O)cc1`
Response: 3.9

Request: Please look up its solubility kinetic: `O=C(C#Cc1ccccc1)Nc1ccccc1F`
Response: 25.4

Request: Please look up its solubility kinetic: O=C1CSC(c2ccc([N+](=O)[O-])cc2)N1c1ccccc1 (centres undefined)
Response: 42

Request: Please look up its solubility kinetic: `COC(=O)Cc1ccc2oc(-c3cccnc3)nc2c1`
Response: 37

Request: Please look up its solubility kinetic: `O=C(Nc1ccc(NC(=O)c2ccccc2Cl)nc1)c1ccco1`
Response: 10.2

* * *

Kindly supply the reported solubility kinetic values for the records listed here.
details: buffer; pH 7.4; 200.0 µM
Quick note: give the figure in mg/mL, leave out the unit.

Request: Please look up its solubility kinetic: `O=c1[nH]c2c(oc3ccccc32)c(=O)n1Cc1ccccc1`
Response: 0.003

Request: Please look up its solubility kinetic: `Cc1cc(C)nc(Nc2ccc(Cl)cc2C)n1.Cl`
Response: 0.0212

Request: Please look up its solubility kinetic: COC1C(C)=C(C)C(=O)N1Cc1ccc(F)cc1 (configuration not stated)
Response: 0.0319

Request: Please look up its solubility kinetic: `Cc1cc(C)c(S(=O)(=O)NCc2ccc3c(c2)OCO3)c(C)c1`
Response: 0.0017

Request: Please look up its solubility kinetic: `O=[N+]([O-])c1cc(-n2cccc2)ccc1N1CCOCC1`
Response: 0.0316

Request: Please look up its solubility kinetic: `CC(=O)c1c(C)nc2ccc([N+](=O)[O-])cc2c1-c1ccccc1`
Response: 0.0219

Request: Please look up its solubility kinetic: `Cc1cc(S(=O)(=O)NCCCN2CCOCC2)c(Cl)cc1Cl`
Response: 0.0426

* * *

Kindly supply the reported solubility kinetic values for the records listed here.
conditions: buffer; pH 7.4; 200.0 µM
Quick note: give the figure in µg/mL, leave out the unit.

Request: Please look up its solubility kinetic: `COC(=O)c1ccccc1Nc1ccnc(Cl)n1`
Response: 32.1

Request: Please look up its solubility kinetic: COc1ccc(CC(CN)c2ccccc2)cc1 (stereo unspecified)
Response: 29.5

Request: Please look up its solubility kinetic: `Cc1cc(C)cc(NC(=O)CN2CCC(C(=O)c3ccccc3)CC2)c1`
Response: 16.5

Request: Please look up its solubility kinetic: `O=C(COC(=O)CCSc1ccccc1)Nc1ccccc1Br`
Response: 18.2

Request: Please look up its solubility kinetic: `Cc1cc(NC(=O)COC(=O)C2=COCCO2)c([N+](=O)[O-])cc1C`
Response: 3.7

Request: Please look up its solubility kinetic: `Cc1ccc(NC(=O)COc2ccc(N(C)C(=O)C(C)(C)C)cc2)cc1S(=O)(=O)N1CCCCC1`
Response: 6.7

Request: Please look up its solubility kinetic: `CN1CCN(c2nc(Nc3ccccc3)nc(N)c2[N+](=O)[O-])CC1`
Response: 47.5

* * *

Kindly supply the reported log10(solubility kinetic) values for the records listed here.
settings: buffer; pH 7.4; 200.0 µM
Hi team, quick reminder: these entries are log10 of solubility kinetic (µg/mL).

Request: Please look up its log10(solubility kinetic): `O=C(Cc1ccccc1)NCc1cccnc1`
Response: 1.53

Request: Please look up its log10(solubility kinetic): CC(C[N+](C)(C)C)OC(=O)C1(c2ccccc2)CCCC1 (stereo not drawn)
Response: 1.54

Request: Please look up its log10(solubility kinetic): `CCNC(=O)C(=O)Nc1ccc(OC)c(Cl)c1`
Response: 0.38

Request: Please look up its log10(solubility kinetic): `COc1ccc(/C(N)=N/OC(=O)C2CCCCC2)cc1`
Response: 1.31

Request: Please look up its log10(solubility kinetic): `O=C(c1ccc(Br)cc1)N1CCN(Cc2ccccc2)CC1`
Response: 1.59

Request: Please look up its log10(solubility kinetic): `CSc1nc2ccc(C)cc2c(=O)n1-c1cccnc1`
Response: 0.91

Request: Please look up its log10(solubility kinetic): `CCC(=O)N(Cc1cc(=O)[nH]c2ccccc12)c1ccccc1C`
Response: 1.56

Request: Please look up its log10(solubility kinetic): `Cc1ccc(Cn2c(=O)n(C)c(=O)c3sccc32)cc1`
Response: 0.08

Request: Please look up its log10(solubility kinetic): `O=C(CCCc1nc2ccccc2s1)Nc1ccccc1`
Response: 1.00

Request: Please look up its log10(solubility kinetic): `O=[N+]([O-])c1ccc(CN2CCN(c3ccc([N+](=O)[O-])cc3)CC2)cc1`
Response: 0.30

Request: Please look up its log10(solubility kinetic): CC(C(=O)N1CCCC1)N1CCN(S(=O)(=O)c2ccccc2)CC1 (stereo not drawn)
Response: 1.67

Request: Please look up its log10(solubility kinetic): `O=C(NC1=NCCS1)c1ccccc1F`
Response: 1.52

Request: Please look up its log10(solubility kinetic): `CCOC(=O)C1=C(CC)Nc2ccccc2N=C1NC(=O)c1cc(S(=O)(=O)N2CCOCC2)ccc1C`
Response: 1.71

Request: Please look up its log10(solubility kinetic): `COc1ccc(-c2cc(=O)oc3c(C)c(OCC(=O)N(C)C)ccc23)cc1`
Response: 0.98

Request: Please look up its log10(solubility kinetic): `Cc1ccc(Cl)cc1NC(=S)N1CCCCCC1`
Response: 1.58

Request: Please look up its log10(solubility kinetic): CCOC(=O)c1sc(NC(=O)CN2CC(C)OC(C)C2)nc1C (stereo not drawn)
Response: 1.69

Request: Please look up its log10(solubility kinetic): `Cc1noc(C(=O)Nc2ccc(F)cc2F)c1Cl`
Response: 1.12

Request: Please look up its log10(solubility kinetic): `CCOc1ncccc1C(=O)NCCc1c[nH]c2ccccc12`
Response: 0.94

Request: Please look up its log10(solubility kinetic): `O=S(=O)(c1ccc(=S)[nH]c1)N1CCOCC1`
Response: 1.33

Request: Please look up its log10(solubility kinetic): `Cn1c(/C=C/c2cccc([N+](=O)[O-])c2)c([N+](=O)[O-])c(=O)n(C)c1=O`
Response: 1.69

Request: Please look up its log10(solubility kinetic): CCC(C)NC(=O)c1cc2c(=O)n3ccccc3nc2s1 (stereo not drawn)
Response: 1.52

Request: Please look up its log10(solubility kinetic): `COc1ccc(/C=C/C(=O)OCC(=O)NCCCc2ccccc2)cc1OC`
Response: 1.30

Request: Please look up its log10(solubility kinetic): CC1CCC(NC(=O)c2ccc(COc3ccccc3)o2)CC1 (stereo not drawn)
Response: 0.23

Request: Please look up its log10(solubility kinetic): `CCOC(=O)COn1c(=O)c(-c2ccccc2)[n+]([O-])c2ccccc21`
Response: 1.55

Request: Please look up its log10(solubility kinetic): `Nc1nc2c([N+](=O)[O-])cccc2s1`
Response: 1.36

Request: Please look up its log10(solubility kinetic): `c1ccc(SCc2nc3ccccc3s2)nc1`
Response: 1.25

Request: Please look up its log10(solubility kinetic): `Cc1cccc(/C=C/c2nc3ccccc3c(=O)[nH]2)c1`
Response: -0.22

Request: Please look up its log10(solubility kinetic): `O=C(COc1ccccc1)Nc1ccc(Cl)cn1`
Response: 1.10

Request: Please look up its log10(solubility kinetic): CCc1ccccc1NC(=O)C1COc2ccccc2O1 (stereo not drawn)
Response: 1.52

Request: Please look up its log10(solubility kinetic): `CC(=O)NC(=S)Nc1ccc([N+](=O)[O-])cc1C`
Response: 0.54

Request: Please look up its log10(solubility kinetic): `O=C(COc1ccc(Cl)cc1)NCCc1ccccn1`
Response: 1.57

Request: Please look up its log10(solubility kinetic): `CN(C)S(=O)(=O)c1ccc(Cl)c(NC(=O)COC(=O)CCC2CCCCC2)c1`
Response: 0.86

Request: Please look up its log10(solubility kinetic): `O=C(/C=C/c1cccnc1)c1cc(F)ccc1O`
Response: 1.30

Request: Please look up its log10(solubility kinetic): `Clc1ccc(-c2nc(-c3cnccn3)no2)cc1`
Response: 0.51

Request: Please look up its log10(solubility kinetic): `O=C(CN1C(=O)NC2(CCCCCCC2)C1=O)Nc1cccc(Br)c1`
Response: 0.91
